Data provenance: patent US5227508A

tested on: v-sis oncogene-expressing NIH 3T3 cells; assay: Cell growth inhibition, v-sis oncogene-expressing NIH 3T3 cells, 3 days; type: cell-based; conditions: Mus musculus, NIH3T3, 72 h, + myo-inositol; 3 days; ± S.E. of mean; read-out: v-sis NIH IC50

chemical-smiles	IC50 [µM]
CCCCCCCCCCCCCCCC(=O)OC[C@H](COP(=O)(O)O[C@H]1[C@H](O)[C@@H](O)[C@H](O)[C@@H](F)[C@H]1O)OC(=O)CCCCCCCCCCCCCCC	81
